Target: UniProt P25929
Test: Displacement of [3H]UR-MK299 from Y1 receptor in human SK-N-MC cells by radioligand binding assay
pKi: −log10 of the molar value.
Property Name: pKi

Here's what some known entries look like.
Chemical Smiles | Property Name | Assay Value
Cc1cc(/C=C/C=C/c2ccc(N(C)C)cc2)cc(C)[n+]1CCNC(=O)/N=C(/N)NCCC[C@@H](NC(=O)C(c1ccccc1)c1ccccc1)C(=O)NCc1ccc(O)cc1 | pKi | 6.99
N/C(=N/C(=O)NCCNC(=O)C1CC1)NCCC[C@@H](NC(=O)C(c1ccccc1)c1ccccc1)C(=O)NCc1ccc(O)cc1 | pKi | 8.93
N/C(=N/C(=O)NCCNC(=O)CBr)NCCC[C@@H](NC(=O)C(c1ccccc1)c1ccccc1)C(=O)NCc1ccc(O)cc1 | pKi | 9.90
N/C(=N/C(=O)NCCNC(=O)CO)NCCC[C@@H](NC(=O)C(c1ccccc1)c1ccccc1)C(=O)NCc1ccc(O)cc1 | pKi | 9.84
N/C(=N/C(=O)NCCNC(=O)c1ccccc1)NCCC[C@@H](NC(=O)C(c1ccccc1)c1ccccc1)C(=O)NCc1ccc(O)cc1 | pKi | 7.25

A = N/C(=N/C(=O)NCCNC(=O)Cc1ccccc1)NCCC[C@@H](NC(=O)C(c1ccccc1)c1ccccc1)C(=O)NCc1ccc(O)cc1
B = N/C(=N/C(=O)NCCNC(=O)C1CCCC1)NCCC[C@@H](NC(=O)C(c1ccccc1)c1ccccc1)C(=O)NCc1ccc(O)cc1
C = N/C(=N/C(=O)NCCNC(=O)C(F)F)NCCC[C@@H](NC(=O)C(c1ccccc1)c1ccccc1)C(=O)NCc1ccc(O)cc1
D = N/C(=N/C(=O)NCCNC(=O)C1CCC1)NCCC[C@@H](NC(=O)C(c1ccccc1)c1ccccc1)C(=O)NCc1ccc(O)cc1
E = N/C(=N/C(=O)NCCNC(=O)CCCl)NCCC[C@@H](NC(=O)C(c1ccccc1)c1ccccc1)C(=O)NCc1ccc(O)cc1
Please list the entries, largest pKi first. Give your ranking as a list of the labels in the requested order.
C, E, D, B, A
(C: 10.17, E: 9.42, D: 8.96, B: 7.28, A: 6.52)

1 = CC(=O)NCCNC(=O)/N=C(/N)NCCC[C@@H](NC(=O)C(c1ccccc1)c1ccccc1)C(=O)NCc1ccc(O)cc1
2 = N/C(=N/C(=O)NCCNC(=O)C1CCCCC1)NCCC[C@@H](NC(=O)C(c1ccccc1)c1ccccc1)C(=O)NCc1ccc(O)cc1
3 = CC(C)(C)C(=O)NCCNC(=O)/N=C(/N)NCCC[C@@H](NC(=O)C(c1ccccc1)c1ccccc1)C(=O)NCc1ccc(O)cc1
Please list the entries, largest pKi first. Give your ranking as a list of the labels in the requested order.
1, 3, 2

* * *

Biological target: Neuropeptide Y receptor type 1 (Homo sapiens) (UniProt P25929)
Settings: HEL, filed as antagonist, time 15.0 min
Property Name: pKb

Chemical Smiles | Target Desc | pKb
N/C(=N/C(=O)NCCNC(=O)C(c1ccccc1)c1ccccc1)NCCC[C@@H](NC(=O)C(c1ccccc1)c1ccccc1)C(=O)NCc1ccc(O)cc1 | Neuropeptide Y receptor type 1 (Homo sapiens) (UniProt P25929) | 7.16
N/C(=N/C(=O)NCCNC(=O)c1ccc(F)cc1)NCCC[C@@H](NC(=O)C(c1ccccc1)c1ccccc1)C(=O)NCc1ccc(O)cc1 | Neuropeptide Y receptor type 1 (Homo sapiens) (UniProt P25929) | 8.67
N/C(=N/C(=O)NCCNC(=O)Cc1ccccc1)NCCC[C@@H](NC(=O)C(c1ccccc1)c1ccccc1)C(=O)NCc1ccc(O)cc1 | Neuropeptide Y receptor type 1 (Homo sapiens) (UniProt P25929) | 7.9
N/C(=N/C(=O)NCCNC(=O)CO)NCCC[C@@H](NC(=O)C(c1ccccc1)c1ccccc1)C(=O)NCc1ccc(O)cc1 | Neuropeptide Y receptor type 1 (Homo sapiens) (UniProt P25929) | 10.9
N/C(=N/C(=O)NCCNC(=O)CBr)NCCC[C@@H](NC(=O)C(c1ccccc1)c1ccccc1)C(=O)NCc1ccc(O)cc1 | Neuropeptide Y receptor type 1 (Homo sapiens) (UniProt P25929) | 11.1
CC(C)C(=O)NCCNC(=O)/N=C(/N)NCCC[C@@H](NC(=O)C(c1ccccc1)c1ccccc1)C(=O)NCc1ccc(O)cc1 | Neuropeptide Y receptor type 1 (Homo sapiens) (UniProt P25929) | 11.1
C=CC(=O)NCCNC(=O)/N=C(/N)NCCC[C@@H](NC(=O)C(c1ccccc1)c1ccccc1)C(=O)NCc1ccc(O)cc1 | Neuropeptide Y receptor type 1 (Homo sapiens) (UniProt P25929) | 10.6
N/C(=N/C(=O)NCCNC(=O)C1CCCC1)NCCC[C@@H](NC(=O)C(c1ccccc1)c1ccccc1)C(=O)NCc1ccc(O)cc1 | Neuropeptide Y receptor type 1 (Homo sapiens) (UniProt P25929) | 9
N/C(=N/C(=O)NCCNC(=O)C1CCC1)NCCC[C@@H](NC(=O)C(c1ccccc1)c1ccccc1)C(=O)NCc1ccc(O)cc1 | Neuropeptide Y receptor type 1 (Homo sapiens) (UniProt P25929) | 10.5
N/C(=N/C(=O)NCCNC(=O)C1CCCCC1)NCCC[C@@H](NC(=O)C(c1ccccc1)c1ccccc1)C(=O)NCc1ccc(O)cc1 | Neuropeptide Y receptor type 1 (Homo sapiens) (UniProt P25929) | 8.39
N/C(=N/C(=O)NCCNC(=O)c1ccccc1)NCCC[C@@H](NC(=O)C(c1ccccc1)c1ccccc1)C(=O)NCc1ccc(O)cc1 | Neuropeptide Y receptor type 1 (Homo sapiens) (UniProt P25929) | 8.82
N/C(=N/C(=O)NCCNC(=O)C1CC1)NCCC[C@@H](NC(=O)C(c1ccccc1)c1ccccc1)C(=O)NCc1ccc(O)cc1 | Neuropeptide Y receptor type 1 (Homo sapiens) (UniProt P25929) | 10.5
CC(C)(C)C(=O)NCCNC(=O)/N=C(/N)NCCC[C@@H](NC(=O)C(c1ccccc1)c1ccccc1)C(=O)NCc1ccc(O)cc1 | Neuropeptide Y receptor type 1 (Homo sapiens) (UniProt P25929) | 8.71

* * *

Molecular target: Neuropeptide Y receptor type 1 (Homo sapiens)
Test: Antagonist activity at Y1 receptor in human HEL cells assessed as reduction in pNPY-induced calcium mobilization preincubated for 15 mins followed by pNPY stimulation and measured immediately by Fura-2 dye based fluorescence assay
Property Name: IC50 (nM)

Chemical Smiles | Target Desc | IC50 / nM
N/C(=N/C(=O)NCCNC(=O)CO)NCCC[C@@H](NC(=O)C(c1ccccc1)c1ccccc1)C(=O)NCc1ccc(O)cc1 | Neuropeptide Y receptor type 1 (Homo sapiens) | 0.0912

I = N/C(=N/C(=O)NCCNC(=O)C1CC1)NCCC[C@@H](NC(=O)C(c1ccccc1)c1ccccc1)C(=O)NCc1ccc(O)cc1
II = N/C(=N/C(=O)NCCNC(=O)CCCl)NCCC[C@@H](NC(=O)C(c1ccccc1)c1ccccc1)C(=O)NCc1ccc(O)cc1
Of I and II , whose reported IC50 is numerically smaller? Field: selected label. Fill in the label of the entry you choose.
I

I = CC(C)C(=O)NCCNC(=O)/N=C(/N)NCCC[C@@H](NC(=O)C(c1ccccc1)c1ccccc1)C(=O)NCc1ccc(O)cc1
II = CC(C)(C)C(=O)NCCNC(=O)/N=C(/N)NCCC[C@@H](NC(=O)C(c1ccccc1)c1ccccc1)C(=O)NCc1ccc(O)cc1
Between I and II , whose recorded IC50 is greater? Field: selected label. Fill in the label of the entry you choose.
II

a = N/C(=N/C(=O)NCCNC(=O)Cc1ccccc1)NCCC[C@@H](NC(=O)C(c1ccccc1)c1ccccc1)C(=O)NCc1ccc(O)cc1
b = N/C(=N/C(=O)NCCNC(=O)c1ccc(F)cc1)NCCC[C@@H](NC(=O)C(c1ccccc1)c1ccccc1)C(=O)NCc1ccc(O)cc1
Between a and b , whose recorded IC50 is greater? Field: selected label. Fill in the label of the entry you choose.
a

* * *

Biological target: Neuropeptide Y receptor type 1 (Homo sapiens, UniProt P25929)
Sequence (P25929 whole entry): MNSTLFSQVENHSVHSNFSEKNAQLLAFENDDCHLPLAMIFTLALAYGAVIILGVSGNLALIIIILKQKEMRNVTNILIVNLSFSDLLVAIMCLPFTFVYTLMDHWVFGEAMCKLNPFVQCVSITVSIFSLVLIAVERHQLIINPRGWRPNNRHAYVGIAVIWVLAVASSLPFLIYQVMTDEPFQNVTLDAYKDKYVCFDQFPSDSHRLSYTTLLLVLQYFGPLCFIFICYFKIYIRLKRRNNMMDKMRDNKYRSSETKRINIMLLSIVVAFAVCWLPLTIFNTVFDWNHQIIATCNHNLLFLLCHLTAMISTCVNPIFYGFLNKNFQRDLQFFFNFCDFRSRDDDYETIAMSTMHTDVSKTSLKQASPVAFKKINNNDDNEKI
Assay: Antagonist activity at Y1 receptor in human HEL cells assessed as reduction in pNPY-induced calcium mobilization preincubated for 15 mins followed by pNPY stimulation and measured immediately by Fura-2 dye based fluorescence assay
Property Name: IC50 (nM)

A = C=CC(=O)NCCNC(=O)/N=C(/N)NCCC[C@@H](NC(=O)C(c1ccccc1)c1ccccc1)C(=O)NCc1ccc(O)cc1
B = N/C(=N/C(=O)NCCNC(=O)C1CCCC1)NCCC[C@@H](NC(=O)C(c1ccccc1)c1ccccc1)C(=O)NCc1ccc(O)cc1
C = N/C(=N/C(=O)NCCNC(=O)C(F)F)NCCC[C@@H](NC(=O)C(c1ccccc1)c1ccccc1)C(=O)NCc1ccc(O)cc1
Hey, can you sort those molecules up there by IC50, smallest first? Give your ranking as a list of the labels in the requested order.
C, A, B
(C: 0.11 nM, A: 0.186 nM, B: 7.59 nM)
